Where do the numbers come from? From the supplement of paper PMC4862054.

System: Hs578T
assay explanation: normalised response (% of control), CellTox Green; higher = less cell death (100 = DMSO, 0 = benzethonium chloride kill control)
condition summary: incubation time: 72 h
metric name: normalised response (%)
The reply should contain only the number, in %.

Here are 3 compounds together with their reported answers.
{"compound": "Cn1c(Nc2ccc(C(F)(F)F)cc2)nc2cc(Oc3ccnc(-c4ncc(C(F)(F)F)[nH]4)c3)ccc21 [RAF265] (1000 nM)", "normalised response / %": 118}
{"compound": "Cc1ccc(C(=O)N(CCCN)[C@@H](c2oc3cc(Cl)ccc3c(=O)c2Cc2ccccc2)C(C)C)cc1 (1 nM)", "normalised response / %": 104}
{"compound": "O=C1CCC(N2C(=O)c3ccccc3C2=O)C(=O)N1 (stereo not given) [Thalidomide] (1000 nM)", "normalised response / %": 97.6}

Report normalised response for N[C@@H](CSC(c1ccccc1)(c1ccccc1)c1ccccc1)C(=O)O [S-trityl-L-cysteine] (400 nM) please.
79.2

Report normalised response for Cn1c(Nc2ccc(C(F)(F)F)cc2)nc2cc(Oc3ccnc(-c4ncc(C(F)(F)F)[nH]4)c3)ccc21 [RAF265] (100 nM) please.
107

---

Each record here notes measured normalised viability.
Test system: CAL-85-1
assay explanation: normalised viability (% of control), CellTiter-Blue; higher = more viable cells (about 100 = DMSO control)
condition summary: 3 nM; incubation time: 72 h
The reply should contain only the number, in %.

Here are 3 molecules together with their reported answers.
{"item smiles": "CCN(CCCOc1ccc2c(Nc3cc(CC(=O)Nc4cccc(F)c4)[nH]n3)ncnc2c1)CCOP(=O)(O)O", "study system": "CAL-85-1", "normalised viability [%]": 89.8}
{"item smiles": "CNCc1ccc(-c2[nH]c3cc(F)cc4c3c2CCNC4=O)cc1", "study system": "CAL-85-1", "normalised viability [%]": 93.2}
{"item smiles": "CN(C)/N=N/c1[nH]cnc1C(N)=O", "study system": "CAL-85-1", "normalised viability [%]": 95.8}

// next entry
Report normalised viability for Cc1ccc(C(=O)Nc2ccc(CN3CCN(C)CC3)c(C(F)(F)F)c2)cc1C#Cc1cnc2cccnn12 please.
85.4

---

Test system: Hs578T
assay explanation: normalised response (% of control), CellTiter-Glo; higher = more viable cells (100 = DMSO, 0 = benzethonium chloride kill control)
condition summary: incubation time: 72 h
Each record here notes measured normalised response.
The reply should contain only the number, in %.

Here are 2 compounds together with their reported answers.
{"compound": "CCC(C)(C)C(=O)O[C@H]1C[C@@H](C)C=C2C=C[C@H](C)[C@H](CC[C@@H]3C[C@@H](O)CC(=O)O3)[C@H]21 [Simvastatin] (10 nM)", "study system": "Hs578T", "unit spec": "%", "measured result": 96.3}
{"compound": "CCCCCCCCCCCCCCCCCCOP(=O)([O-])OC1CC[N+](C)(C)CC1 [Perifosine] (0.25 nM)", "study system": "Hs578T", "unit spec": "%", "measured result": 108}

Notebook entry, Hs578T assay: normalised response of Clc1ccc(Nc2nnc(Cc3ccncc3)c3ccccc23)cc1 [Vatalanib] (10 nM) = ?
100

Notebook entry, Hs578T assay: normalised response of Cc1ccc(C(=O)Nc2ccc(CN3CCN(C)CC3)c(C(F)(F)F)c2)cc1C#Cc1cnc2cccnn12 [Ponatinib] (0.1 nM) = ?
102

Notebook entry, Hs578T assay: normalised response of C=C(c1ccc(C(=O)O)cc1)c1cc2c(cc1C)C(C)(C)CCC2(C)C [Bexarotene] (10 nM) = ?
97

Notebook entry, Hs578T assay: normalised response of CS(=O)(=O)c1ccc(C2=C(c3ccccc3)C(=O)OC2)cc1 [Rofecoxib] (10 nM) = ?
114

Notebook entry, Hs578T assay: normalised response of Cn1c(CCCC(=O)O)nc2cc(N(CCCl)CCCl)ccc21 [Bendamustine] (10 nM) = ?
103

Notebook entry, Hs578T assay: normalised response of CO[C@H]1/C=C\C=C(/C)C(=O)NC2=CC(=O)C(NCCN(C)C)=C(C[C@@H](C)C[C@H](OC)[C@H](O)[C@@H](C)/C=C(\C)[C@@H]1OC(N)=O)C2=O [Alvespimycin] (100 nM) = ?
41.8

Notebook entry, Hs578T assay: normalised response of N.N.[Cl][Pt][Cl] [Cisplatin] (0.1 nM) = ?
102

Notebook entry, Hs578T assay: normalised response of O=P1(NCCCl)OCCCN1CCCl (centres undefined) [Ifosfamide] (1000 nM) = ?
97.8

---

Test system: MDA-MB-436
assay explanation: drug sensitivity score (DSS), CellTiter-Blue viability (DSS (AUC-based score)); higher = stronger viability inhibition; extreme values may be limits of the assay
condition summary: incubation time: 72 h
Each record here notes measured drug sensitivity score.
No unit in the answer, please; the number alone is enough.

Here are 2 compounds together with their reported answers.
{"compound": "CO[C@H]1/C=C\\C=C(/C)C(=O)NC2=CC(=O)C(NCCN(C)C)=C(C[C@@H](C)C[C@H](OC)[C@H](O)[C@@H](C)/C=C(\\C)[C@@H]1OC(N)=O)C2=O [Alvespimycin]", "drug sensitivity score": 16.1}
{"compound": "Clc1ccc(Nc2nnc(Cc3ccncc3)c3ccccc23)cc1 [Vatalanib]", "drug sensitivity score": 0}

// next entry
Report drug sensitivity score for Oc1nc(-c2ccc(C(F)(F)F)cc2)nc2c1CSCC2 [XAV-939] please.
0

---

Tested on: BT-549
assay explanation: normalised viability (% of control), CellTiter-Blue; higher = more viable cells (about 100 = DMSO control)
condition summary: 1000 nM; incubation time: 72 h
Returns: string. Value is 1.0 if measured normalised viability is below 90%, and 0.0 if it is greater than or equal to it.

Check out these entries, answers already filled in.
{"compound": "NC(=O)Nc1cc(-c2cccc(F)c2)sc1C(=O)N[C@H]1CCCNC1 [AZD 7762]", "label": 1.0}
{"compound": "CNCc1ccc(-c2[nH]c3cc(F)cc4c3c2CCNC4=O)cc1 [Rucaparib]", "label": 0.0}
{"compound": "Oc1nc(-c2ccc(C(F)(F)F)cc2)nc2c1CSCC2 [XAV-939]", "label": 0.0}
{"compound": "COc1cc([C@@H]2c3cc4c(cc3[C@@H](O[C@@H]3O[C@@H]5CO[C@@H](C)O[C@H]5[C@H](O)[C@H]3O)[C@H]3COC(=O)[C@H]23)OCO4)cc(OC)c1O [Etoposide]", "label": 1.0}

Here is another compound to look at.
Please let me know if Cn1c(CCCC(=O)O)nc2cc(N(CCCl)CCCl)ccc21 [Bendamustine] shows normalised viability below 90%.
0.0

---

Each record here notes measured normalised response.
Test system: HCC1143
assay explanation: normalised response (% of control), CellTiter-Glo; higher = more viable cells (100 = DMSO, 0 = benzethonium chloride kill control)
condition summary: incubation time: 72 h
The reply should contain only the number, in %.

{"molecule": "N[C@@H](CSC(c1ccccc1)(c1ccccc1)c1ccccc1)C(=O)O [S-trityl-L-cysteine] (4000 nM)", "normalised response (%)": 94}

Report normalised response for C[C@]12CC[C@@H]3c4ccc(O)cc4C[C@@H](CCCCCCCCC[S+]([O-])CCCC(F)(F)C(F)(F)F)[C@H]3[C@@H]1CC[C@@H]2O (some centres not stated) [Fulvestrant] (1 nM) please.
105

Report normalised response for Clc1ccc(Nc2nnc(Cc3ccncc3)c3ccccc23)cc1 [Vatalanib] (1000 nM) please.
97

Report normalised response for Oc1nc(-c2ccc(C(F)(F)F)cc2)nc2c1CSCC2 [XAV-939] (1 nM) please.
100

Report normalised response for Cn1c(CCCC(=O)O)nc2cc(N(CCCl)CCCl)ccc21 [Bendamustine] (1000 nM) please.
106

Report normalised response for O=C1CCC(N2C(=O)c3ccccc3C2=O)C(=O)N1 (configuration not stated) [Thalidomide] (1 nM) please.
95.5

---

Tested on: CAL-85-1
assay explanation: normalised viability (% of control), CellTiter-Blue; higher = more viable cells (about 100 = DMSO control)
condition summary: incubation time: 72 h
metric name: normalised viability

{"molecule": "COc1cc([C@@H]2c3cc4c(cc3[C@@H](O[C@@H]3O[C@@H]5CO[C@@H](C)O[C@H]5[C@H](O)[C@H]3O)[C@H]3COC(=O)[C@H]23)OCO4)cc(OC)c1O [Etoposide] (300 nM)", "study system": "CAL-85-1", "normalised viability": "98.9%"}
{"molecule": "CN(N=O)C(=O)N[C@@H](C=O)[C@@H](O)[C@H](O)[C@H](O)CO [Streptozocin] (300 nM)", "study system": "CAL-85-1", "normalised viability": "106%"}
{"molecule": "O=P1(NCCCl)OCCCN1CCCl (stereo unspecified) [Ifosfamide] (300 nM)", "study system": "CAL-85-1", "normalised viability": "97.1%"}
{"molecule": "COc1cc2nccc(Oc3ccc(NC(=O)C4(C(=O)Nc5ccc(F)cc5)CC4)cc3)c2cc1OC [Cabozantinib] (30 nM)", "study system": "CAL-85-1", "normalised viability": "85.5%"}
{"molecule": "Cc1ccc(C(=O)Nc2ccc(CN3CCN(C)CC3)c(C(F)(F)F)c2)cc1C#Cc1cnc2cccnn12 [Ponatinib] (30 nM)", "study system": "CAL-85-1", "normalised viability": "90%"}

Report normalised viability for Cc1ccc(-n2nc(C(C)(C)C)cc2NC(=O)Nc2ccc(OCCN3CCOCC3)c3ccccc23)cc1 [Doramapimod] (300 nM) please.
81.1%
